Each item that follows carries a reported IC50.
- tested-target: ERK2 enzyme (Homo sapiens (Human), UniProt P28482)
- Sequence (P28482 whole entry): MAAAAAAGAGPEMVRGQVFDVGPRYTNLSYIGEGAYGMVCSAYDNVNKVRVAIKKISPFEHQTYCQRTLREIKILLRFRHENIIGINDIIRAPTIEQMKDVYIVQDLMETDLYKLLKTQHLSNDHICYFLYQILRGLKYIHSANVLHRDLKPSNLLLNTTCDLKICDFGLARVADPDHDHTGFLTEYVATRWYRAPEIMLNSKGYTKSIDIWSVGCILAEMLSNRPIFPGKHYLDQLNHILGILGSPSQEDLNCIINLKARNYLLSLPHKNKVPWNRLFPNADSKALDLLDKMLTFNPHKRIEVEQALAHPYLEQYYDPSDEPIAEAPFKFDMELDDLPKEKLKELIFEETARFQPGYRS
- assay-summary: Inhibition assay of ERK (Z'-LYTE kinase assay, Ser/Thr 3 peptide substrate)
- Assay type: biochemical
- measurement-context: In vitro ERK2 enzyme, 100 μM ATP

Answered cases to consult:
> print(dat)
                                 cpd.smiles      reported
1  Cc1cc(-c2n[nH]c3cc4c(cc23)CN([C@@H]2CCCN(Cc3cnn(C)c3)C2)C(=O)N4)ccn1       < 50 nM
2  Cc1cc(-c2n[nH]c3cc4c(cc23)CN(C2CCOCC2)C(=O)N4)ccn1       < 50 nM
3  Cc1ncc(-c2n[nH]c3cc4c(cc23)CN(Cc2cccc(Cl)c2)C(=O)N4)cn1       < 50 nM
4  Cc1cc(-c2n[nH]c3cc4c(cc23)CN([C@@H]2CCCN(CCc3ccccc3)C2)C(=O)N4)ccn1       < 50 nM
5  Cc1cc(-c2n[nH]c3cc4c(cc23)CN([C@@H]2CCCN(CC3CCCCC3)C2)C(=O)N4)ccn1  50 to 250 nM
6  Cc1cc(-c2n[nH]c3cc4c(cc23)CN(CCN)C(=O)N4)ccn1       < 50 nM

Req: Given COc1ccc(-c2n[nH]c3cc4c(cc23)CN(CCc2ccc(F)cc2)C(=O)N4)cn1 , report its IC50 on ERK2 enzyme (Homo sapiens (Human), UniProt P28482).
Resp: < 50 nM

Req: Given COc1ncc(-c2n[nH]c3cc4c(cc23)CN(CCc2ccc(F)cc2)C(=O)N4)cn1 , report its IC50 on ERK2 enzyme (Homo sapiens (Human), UniProt P28482).
Resp: < 50 nM
